src = paper PMC11063955

Biological target: SMAD4–SMAD3 PPI (Homo sapiens, UniProt P84022+Q13485)
Construct: expressed in transfected cells; host or cells: HEK293T (transient co-transfection, lysate used)
Sequence (Q13485 whole entry): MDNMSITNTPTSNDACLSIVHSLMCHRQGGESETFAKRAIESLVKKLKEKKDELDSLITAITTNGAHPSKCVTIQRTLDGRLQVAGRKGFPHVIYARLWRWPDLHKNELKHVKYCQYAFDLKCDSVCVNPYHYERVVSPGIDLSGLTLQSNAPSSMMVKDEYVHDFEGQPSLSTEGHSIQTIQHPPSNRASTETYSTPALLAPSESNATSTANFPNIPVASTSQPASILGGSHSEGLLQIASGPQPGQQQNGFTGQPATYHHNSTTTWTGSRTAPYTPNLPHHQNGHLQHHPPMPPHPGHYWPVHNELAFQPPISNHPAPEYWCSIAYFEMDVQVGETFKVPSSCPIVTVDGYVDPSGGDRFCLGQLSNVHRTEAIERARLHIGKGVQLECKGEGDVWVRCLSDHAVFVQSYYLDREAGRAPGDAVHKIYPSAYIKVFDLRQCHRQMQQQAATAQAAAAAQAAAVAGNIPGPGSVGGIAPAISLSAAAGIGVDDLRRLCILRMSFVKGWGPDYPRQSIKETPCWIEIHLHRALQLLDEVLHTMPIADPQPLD
Sequence (P84022 whole entry): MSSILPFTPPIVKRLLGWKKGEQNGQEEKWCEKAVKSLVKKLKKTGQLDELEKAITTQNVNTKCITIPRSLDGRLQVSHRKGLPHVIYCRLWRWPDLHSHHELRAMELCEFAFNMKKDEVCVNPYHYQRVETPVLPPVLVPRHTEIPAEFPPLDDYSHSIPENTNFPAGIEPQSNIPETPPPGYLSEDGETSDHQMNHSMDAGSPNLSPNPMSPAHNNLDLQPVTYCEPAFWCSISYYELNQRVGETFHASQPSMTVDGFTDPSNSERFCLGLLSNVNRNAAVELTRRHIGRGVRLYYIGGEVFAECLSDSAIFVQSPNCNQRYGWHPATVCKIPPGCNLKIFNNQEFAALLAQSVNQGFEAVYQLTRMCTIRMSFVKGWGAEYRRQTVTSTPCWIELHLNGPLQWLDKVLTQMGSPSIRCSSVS
Test: Multiplexed TR-FRET assay, Tb–D2 PPI readout (cell lysate-based)
Assay type: binding
Conditions: TR-FRET dose–response confirmation with re-ordered compounds; lysate co-expressing His-SMAD4 and Flag-SMAD3; read-out: IC50, decrease in the PPI signal
Property name: pIC50
FYI, pIC50 means -log10 of a concentration in mol per litre.

Q: Consider the compound CC(C)=CCC[C@]1(C)C=Cc2c(O)c3c(c(CC=C(C)C)c2O1)O[C@]12C(=C[C@@H]4C[C@H]1C(C)(C)O[C@@]2(C/C=C(/C)C(=O)O)C4=O)C3=O [GA, gambogic acid] and give its measured pIC50.
Ans: 5.37
